Collected ID50 values appear next to each entry.
# System: Human immunodeficiency virus type 1 reverse transcriptase (Human immunodeficiency virus 1), Q72547 [L100I]

[
  {
    "molecule": "CCC(c1nc(SC2CCCC2)[nH]c(=O)c1C)c1c(F)cccc1Cl (configuration not stated)",
    "ID50": "0.068 µM"
  },
  {
    "molecule": "CO[C@H](c1nc(SC(C)C)[nH]c(=O)c1C)c1c(F)cccc1Cl",
    "ID50": "12.3 µM"
  },
  {
    "molecule": "CCCNc1nc(C(OC)c2c(F)cccc2F)c(C)c(=O)[nH]1 (configuration not stated)",
    "ID50": "0.98 µM"
  },
  {
    "molecule": "Cc1ccnc2c1NC(=O)c1cccnc1N2C1CC1",
    "ID50": "8.5 to 9 µM"
  },
  {
    "molecule": "CCC(C)Sc1nc(O)c(C)c(C(C)c2c(F)cccc2F)n1 (configuration not stated)",
    "ID50": "0.67 µM"
  },
  {
    "molecule": "CCC(C)Sc1nc(C(OC)c2c(F)cccc2Cl)c(C)c(=O)[nH]1 (configuration not stated)",
    "ID50": "0.12 µM"
  },
  {
    "molecule": "COC(c1nc(NC2CCCC2)[nH]c(=O)c1C)c1c(Cl)cccc1Cl (configuration not stated)",
    "ID50": "1.9 µM"
  },
  {
    "molecule": "Cc1c([C@H](C)c2c(F)cccc2F)nc(SC2CCCC2)[nH]c1=O",
    "ID50": "0.09 µM"
  },
  {
    "molecule": "Cc1c([C@@H](C)c2c(F)cccc2F)nc(SC2CCCC2)[nH]c1=O",
    "ID50": "2.7 µM"
  },
  {
    "molecule": "CCCNc1nc(C(C)c2c(F)cccc2F)c(C)c(=O)[nH]1 (configuration not stated)",
    "ID50": "0.31 µM"
  },
  {
    "molecule": "CCC(c1nc(SC(C)C)[nH]c(=O)c1C)c1c(F)cccc1F (configuration not stated)",
    "ID50": "0.21 µM"
  },
  {
    "molecule": "CCC(c1nc(SC2CCCC2)[nH]c(=O)c1C)c1c(F)cccc1F (configuration not stated)",
    "ID50": "0.11 µM"
  },
  {
    "molecule": "COC(c1nc(NC(C)C)[nH]c(=O)c1C)c1c(F)cccc1F (configuration not stated)",
    "ID50": "1.1 µM"
  },
  {
    "molecule": "CCC(C)Sc1nc(C(CC)c2c(F)cccc2F)c(C)c(=O)[nH]1 (configuration not stated)",
    "ID50": "0.048 µM"
  },
  {
    "molecule": "COC(c1nc(NC(C)C)[nH]c(=O)c1C)c1c(F)cccc1Cl (configuration not stated)",
    "ID50": "1.9 µM"
  },
  {
    "molecule": "COC(c1nc(SC2CCCC2)[nH]c(=O)c1C)c1c(F)cccc1F (configuration not stated)",
    "ID50": "0.91 µM"
  },
  {
    "molecule": "CCCNc1nc(C(OC)c2c(F)cccc2Cl)c(C)c(=O)[nH]1 (configuration not stated)",
    "ID50": "1.7 µM"
  },
  {
    "molecule": "CCCN(C)c1nc(C(OC)c2c(Cl)cccc2Cl)c(C)c(=O)[nH]1 (configuration not stated)",
    "ID50": "0.34 to 0.42 µM"
  },
  {
    "molecule": "CCC(C)Sc1nc(C(OC)c2c(Cl)cccc2Cl)c(C)c(=O)[nH]1 (configuration not stated)",
    "ID50": "5.2 µM"
  },
  {
    "molecule": "Cc1c(C(C)c2c(F)cccc2F)nc(NC(C)C)[nH]c1=O (configuration not stated)",
    "ID50": "0.25 µM"
  },
  {
    "molecule": "COC(c1nc(NC2CCCC2)[nH]c(=O)c1C)c1c(F)cccc1Cl (configuration not stated)",
    "ID50": "1.1 µM"
  },
  {
    "molecule": "CCCN(C)c1nc([C@@H](OC)c2c(Cl)cccc2Cl)c(C)c(=O)[nH]1",
    "ID50": "4.3 µM"
  }
]
